System: Factor 11 protein
Assay: Factor 11 protein in monkey plasma by sandwich ELISA (Example 45)
Type: in vivo, cynomolgus monkeys
Conditions: day 43; escalating dose regimen; plasma ELISA
Description: Groups, each consisting of two male and three female monkeys, were injected subcutaneously with ISIS 416838, ISIS 416850, ISIS 416858, ISIS 416864, or ISIS 417002 in escalating doses. […] Body weights were measured weekly. […] The results are presented in Table 115, expressed as percentage reduction relative to that of the PBS control.
TEST READOUT: Inhibition of Factor 11 protein relative to the PBS control (%)

- SUBSTANCE: "ISIS 416858: MOE gapmer, nucleobases 1275 to 1318 of SEQ ID NO: 1 (Table 8) (antisense ACGGCATTGGTGCACAGTTT; MOE gapmer, wing and gap sizes not given here)"
  READING UNIT: "%"
  READOUT NUMBER: 39
- SUBSTANCE: "ISIS 417002: MOE gapmer, nucleobases 1275 to 1318 of SEQ ID NO: 1 (Table 8) (antisense GGTGCACAGTTTCTGGCAGG; MOE gapmer, wing and gap sizes not given here)"
  READING UNIT: "%"
  READOUT NUMBER: 9
- SUBSTANCE: "ISIS 416864: MOE gapmer, nucleobases 1275 to 1318 of SEQ ID NO: 1 (Table 8) (antisense GGCAGCGGACGGCATTGGTG; MOE gapmer, wing and gap sizes not given here)"
  READING UNIT: "%"
  READOUT NUMBER: 9
- SUBSTANCE: "ISIS 416838: MOE gapmer, nucleobases 1018 to 1042 of SEQ ID NO: 1 (Table 6) (antisense GCAACCGGGATGATGAGTGC; MOE gapmer, wing and gap sizes not given here)"
  READING UNIT: "%"
  READOUT NUMBER: 5
- SUBSTANCE: "ISIS 416850: MOE gapmer, nucleobases 1275 to 1318 of SEQ ID NO: 1 (Table 8) (antisense TGCACAGTTTCTGGCAGGCC; MOE gapmer, wing and gap sizes not given here)"
  READING UNIT: "%"
  READOUT NUMBER: 23

----------
Listing: lymphocytes of selected substances
Assay: Tolerability in Sprague-Dawley rats: hematology assays (Example 44)
Type: in vivo
Conditions: 50 mg/kg s.c. twice per week for 6 weeks, blood
Strand notation (5' to 3'): a small letter for the sugar, then the base; units joined by * are phosphorothioate-linked, units joined directly phosphodiester-linked; [ ] holds rarer units or linkages, { } end groups; capitals alone tell only the bases. e = 2'-O-(2-methoxyethyl) (MOE); [5mC] = 5-methylcytosine; d = 2'-deoxy (DNA)

- SUBSTANCE: "ISIS 449707: 3-8-3, 4-8-4, 2-10-2, 3-10-3 or 4-10-4 MOE microwalk gapmer (Table 46) (antisense e[5mC]*eA*e[5mC]*eA*dG*dT*dT*dT*d[5mC]*dT*dG*dG*e[5mC]*eA*eG*eG)"
  lymphocytes (%): 91
- SUBSTANCE: "ISIS 449710: 3-8-3, 4-8-4, 2-10-2, 3-10-3 or 4-10-4 MOE microwalk gapmer (Table 46) (antisense e[5mC]*eA*e[5mC]*dA*dG*dT*dT*dT*d[5mC]*dT*dG*dG*d[5mC]*eA*eG*eG)"
  lymphocytes (%): 91
- SUBSTANCE: "ISIS 449708: 3-8-3, 4-8-4, 2-10-2, 3-10-3 or 4-10-4 MOE microwalk gapmer (Table 46) (antisense eA*e[5mC]*eA*dG*dT*dT*dT*d[5mC]*dT*dG*dG*e[5mC]*eA*eG)"
  lymphocytes (%): 92
- SUBSTANCE: "ISIS 449709: 3-8-3, 4-8-4, 2-10-2, 3-10-3 or 4-10-4 MOE microwalk gapmer (Table 46) (antisense eG*e[5mC]*eA*e[5mC]*dA*dG*dT*dT*dT*d[5mC]*dT*dG*dG*d[5mC]*eA*eG*eG*e[5mC])"
  lymphocytes (%): 91
- SUBSTANCE: "ISIS 449711: 3-8-3, 4-8-4, 2-10-2, 3-10-3 or 4-10-4 MOE microwalk gapmer (Table 46) (antisense eA*e[5mC]*dA*dG*dT*dT*dT*d[5mC]*dT*dG*dG*d[5mC]*eA*eG)"
  lymphocytes (%): 90

----------
Test: Hematology assays in cynomolgus monkeys (Example 46)
Assay type: in vivo
Conditions: Day-5
Strand notation (5' to 3'): a small letter for the sugar, then the base; units joined by * are phosphorothioate-linked, units joined directly phosphodiester-linked; [ ] holds rarer units or linkages, { } end groups; capitals alone tell only the bases. e = 2'-O-(2-methoxyethyl) (MOE); [5mC] = 5-methylcytosine; d = 2'-deoxy (DNA)
Catalogue of neutrophils readings, one per entry.

- SUBSTANCE: "ISIS 445531: 5-8-5 or 6-8-6 MOE microwalk gapmer (Table 44) (antisense eG*eG*e[5mC]*eA*eT*dT*dG*dG*dT*dG*d[5mC]*dA*d[5mC]*eA*eG*eT*eT*eT)"
  READING UNIT: "%"
  neutrophils: 80
- SUBSTANCE: "ISIS 449707: 3-8-3, 4-8-4, 2-10-2, 3-10-3 or 4-10-4 MOE microwalk gapmer (Table 46) (antisense e[5mC]*eA*e[5mC]*eA*dG*dT*dT*dT*d[5mC]*dT*dG*dG*e[5mC]*eA*eG*eG)"
  READING UNIT: "%"
  neutrophils: 106
- SUBSTANCE: "ISIS 449711: 3-8-3, 4-8-4, 2-10-2, 3-10-3 or 4-10-4 MOE microwalk gapmer (Table 46) (antisense eA*e[5mC]*dA*dG*dT*dT*dT*d[5mC]*dT*dG*dG*d[5mC]*eA*eG)"
  READING UNIT: "%"
  neutrophils: 71
- SUBSTANCE: "ISIS 449708: 3-8-3, 4-8-4, 2-10-2, 3-10-3 or 4-10-4 MOE microwalk gapmer (Table 46) (antisense eA*e[5mC]*eA*dG*dT*dT*dT*d[5mC]*dT*dG*dG*e[5mC]*eA*eG)"
  READING UNIT: "%"
  neutrophils: 84
- SUBSTANCE: "ISIS 449710: 3-8-3, 4-8-4, 2-10-2, 3-10-3 or 4-10-4 MOE microwalk gapmer (Table 46) (antisense e[5mC]*eA*e[5mC]*dA*dG*dT*dT*dT*d[5mC]*dT*dG*dG*d[5mC]*eA*eG*eG)"
  READING UNIT: "%"
  neutrophils: 86
- SUBSTANCE: "ISIS 445522: 5-8-5 or 6-8-6 MOE microwalk gapmer (Table 44) (antisense eG*e[5mC]*eA*e[5mC]*eA*dG*dT*dT*dT*d[5mC]*dT*dG*dG*e[5mC]*eA*eG*eG*e[5mC])"
  READING UNIT: "%"
  neutrophils: 84
- SUBSTANCE: "ISIS 416858: MOE gapmer, nucleobases 1275 to 1318 of SEQ ID NO: 1 (Table 8) (antisense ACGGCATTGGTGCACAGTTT; MOE gapmer, wing and gap sizes not given here)"
  READING UNIT: "%"
  neutrophils: 84
- SUBSTANCE: "ISIS 416850: MOE gapmer, nucleobases 1275 to 1318 of SEQ ID NO: 1 (Table 8) (antisense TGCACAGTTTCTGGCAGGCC; MOE gapmer, wing and gap sizes not given here)"
  READING UNIT: "%"
  neutrophils: 109
- SUBSTANCE: "ISIS 449709: 3-8-3, 4-8-4, 2-10-2, 3-10-3 or 4-10-4 MOE microwalk gapmer (Table 46) (antisense eG*e[5mC]*eA*e[5mC]*dA*dG*dT*dT*dT*d[5mC]*dT*dG*dG*d[5mC]*eA*eG*eG*e[5mC])"
  READING UNIT: "%"
  neutrophils: 101

----------
Assay: Hematology assays in cynomolgus monkeys (Example 45)
Format: in vivo
Details: day 15; escalating dose regimen
Parameter hematocrit: see the listing below.
TEST READOUT: hematocrit (%)

- SUBSTANCE: "ISIS 417002: MOE gapmer, nucleobases 1275 to 1318 of SEQ ID NO: 1 (Table 8) (antisense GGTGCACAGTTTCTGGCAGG; MOE gapmer, wing and gap sizes not given here)"
  TEST READOUT: "hematocrit"
  READOUT NUMBER: 40
- SUBSTANCE: "ISIS 416850: MOE gapmer, nucleobases 1275 to 1318 of SEQ ID NO: 1 (Table 8) (antisense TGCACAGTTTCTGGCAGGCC; MOE gapmer, wing and gap sizes not given here)"
  TEST READOUT: "hematocrit"
  READOUT NUMBER: 40
- SUBSTANCE: "ISIS 416864: MOE gapmer, nucleobases 1275 to 1318 of SEQ ID NO: 1 (Table 8) (antisense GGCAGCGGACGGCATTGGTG; MOE gapmer, wing and gap sizes not given here)"
  TEST READOUT: "hematocrit"
  READOUT NUMBER: 42
- SUBSTANCE: "ISIS 416838: MOE gapmer, nucleobases 1018 to 1042 of SEQ ID NO: 1 (Table 6) (antisense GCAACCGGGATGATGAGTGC; MOE gapmer, wing and gap sizes not given here)"
  TEST READOUT: "hematocrit"
  READOUT NUMBER: 42
- SUBSTANCE: "ISIS 416858: MOE gapmer, nucleobases 1275 to 1318 of SEQ ID NO: 1 (Table 8) (antisense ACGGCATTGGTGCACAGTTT; MOE gapmer, wing and gap sizes not given here)"
  TEST READOUT: "hematocrit"
  READOUT NUMBER: 40
